# Tested on: AGS cells
# procedure.details: 3D cell proliferation assay (CellTiter-Glo 3D), AGS
# Assay type: cell-based
# measurement.conditions: 5 days, read-out: 3D Proliferation Inhibition AGS_IC50
# Protocol: Using a nanoliter liquid handling system (LABCYTE, P-0200), the diluted test compounds were added to a 384-well low-adsorption cell culture plate. Cells were seeded into the wells, and the plate was placed in an incubator at 37° C. with 5% CO2. […] Luminescence values were measured using an EnVision Multilabel Plate Reader (luminescence is proportional to the ATP content in the system, and ATP content directly reflects the number of viable cells). […]
observation.type: IC50 (nM)
Give just the numeric value; nM need not be written.

Some entries whose results are on file:
CN1CCC[C@H]1COc1nc(N2CCC[C@@](C)(O)C2)c2cc3c(c(F)c2n1)-c1cc(O)cc2ccc(F)c(c12)CCCCCN3 (single isomer, unassigned) [Example 28A]; 430
C=C1CN2CCC[C@@]2(COc2nc(N3CCC[C@@](C)(O)C3)c3cc4c(c(F)c3n2)-c2cc(O)cc3ccc(F)c(c23)CCOCCN4)C1 (single isomer, unassigned) [Example 42D]; 5.9
CN1CCC[C@H]1COc1nc(N2CCC[C@@](C)(O)C2)c2cc3c(c(F)c2n1)-c1cc(O)cc2ccc(F)c(c12)CCCCCN3 (single isomer, unassigned) [Example 28B]; 3360

Req: What does the data say about its IC50? Entry: C=C1CN2CCC[C@@]2(COc2nc(N3CCC[C@@](C)(O)C3)c3cc4c(c(F)c3n2)-c2cc(O)cc3ccc(F)c(c23)CCOCCN4)C1 (single isomer, unassigned) [Example 42A]
Resp: 125

Req: // IC50 lookup, key: C=C1CN2CCCC2(COc2nc(N3CCC[C@@](C)(O)C3)c3cc4c(c(F)c3n2)-c2cc(O)cc3ccc(F)c(c23)CCCCCN4C)C1 (single isomer, unassigned) [Example 22B]
Resp: 553

====

# system: KRAS G12D GCP protein (His-tag-KRAS G12D) (Homo sapiens (Human), UniProt P01116, G12D)
# Sequence (P01116-2 other isoform, or with tags, fused parts or gaps G12D): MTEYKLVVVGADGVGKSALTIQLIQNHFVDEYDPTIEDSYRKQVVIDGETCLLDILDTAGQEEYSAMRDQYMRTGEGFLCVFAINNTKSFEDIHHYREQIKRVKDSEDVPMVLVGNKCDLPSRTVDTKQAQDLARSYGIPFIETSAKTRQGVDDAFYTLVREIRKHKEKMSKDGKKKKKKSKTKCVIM
# procedure.details: AlphaLISA compound screening assay, KRAS-GCP protein format
# measurement.conditions: AlphaLISA with cRAF, read-out: GCP-format IC50 (nM)/ Binding assay
Reported IC50 values are given for each entry in this list.
Give the value in nM but do not write nM after it.

O=C1CCCCCCCCCc2c(F)ccc3cc(O)cc(c23)-c2c(cc3c(N4CC5CCC(C4)N5)nc(OC[C@@]45CCCN4C[C@H](F)C5)nc3c2F)N1; 909

Now consider the entry below.
Req: Entry under review: O=C1CCCCCc2c(F)ccc3cc(O)cc(c23)-c2c(cc3c(N4CC5CCC(C4)N5)nc(OC[C@@]45CCCN4C[C@H](F)C5)nc3c2F)N1 . Reported IC50?
Resp: 58.5

====

# System: pERK in AGS cells
# procedure.details: ERK phosphorylation cell assay, AGS
# Assay type: cell-based
# measurement.conditions: Homo sapiens, 3 hours compound incubation, read-out: pERK AGS_IC50
observation.type: IC50 (nM)
Respond with the bare value in nM.

Req: Can you share its IC50? I mean this compound: C=C1CN2CCCC2(COc2nc(N3CCC[C@@](C)(O)C3)c3cc4c(c(F)c3n2)-c2cc(O)cc3ccc(F)c(c23)CCCCCN4C(C)=O)C1 (stereo partly shown) [Example 44]
Resp: 490

====

# reported log10 of IC50; entries follow
# Test system: pERK in AsPC-1 cells
# procedure.details: ERK phosphorylation cell assay, AsPC-1
# Format: cell-based
# measurement.conditions: AsPC-1 cells; read-out: pERK AsPC-1_IC50
# Method: [Worded in the source for another cell line; this cell line is reported under the same test.] • Day 1: AGS cells were seeded into a 384-well cell culture plate and incubated overnight at 37° C. with 5% CO2 in a cell culture incubator. • Day 2: Compounds were added to the plate using an Echo550 liquid handler, followed by incubation at 37° C. with 5% CO2 in a cell culture incubator for 3 hours. Subsequently, the cells were fixed with paraformaldehyde, permeabilized with methanol, and blocked with blocking buffer. […] Fluorescence signal values were read using an Odyssey CLx imaging system. […]
Please be aware that the numbers have been log10-transformed from IC50 in µM.

Field: example entries. Status: answers known.
C=C1CN2CCC[C@@]2(COc2nc(N3CCC[C@@](C)(O)C3)c3cc4c(c(F)c3n2)-c2cc(O)cc3ccc(F)c(c23)CCOCCN4)C1 (single isomer, unassigned) [Example 42D]; -1.92
C=C1CN2CCC[C@@]2(COc2nc(N3CCC[C@@](C)(O)C3)c3cc4c(c(F)c3n2)-c2cc(O)cc3ccc(F)c(c23)CCOCCN4)C1 (single isomer, unassigned) [Example 42C]; -1.00
C[C@@]1(O)CCCN(c2nc(OC[C@@]34CCCN3C[C@H](F)C4)nc3c(F)c4c(cc23)NCCOCCc2c(F)ccc3cccc-4c23)C1 (single isomer, unassigned) [Example 52A]; 0.49
C=C1CN2CCCC2(COc2nc(N3CCC[C@@](C)(O)C3)c3cc4c(c(F)c3n2)-c2cc(O)cc3ccc(F)c(c23)CCCCCN4C)C1 (single isomer, unassigned) [Example 22A]; -1.07
C=C1CN2CCC[C@@]2(COc2nc(N3CCC[C@@](C)(O)C3)c3cc4c(c(F)c3n2)-c2cc(O)cc3ccc(F)c(c23)CCOCCN4)C1 (single isomer, unassigned) [Example 42B]; -1.13
C[C@@]1(O)CCCN(c2nc(OCC34CCCN3CC3(CC3)C4)nc3c(F)c4c(cc23)NCCCCCc2c(F)ccc3cc(O)cc-4c23)C1 (stereo partly shown); -0.12

Req: Using the record for O=C1CCCCCc2c(F)ccc3cc(O)cc(c23)-c2c(cc3c(N4CC5CCC(C4)N5)nc(OC[C@@]45CCCN4C[C@H](F)C5)nc3c2F)N1 [Example 9] , report its log10 of IC50.
Resp: -0.93

Req: Entry under review: C[C@@]1(O)CCCN(c2nc(OCC34CCCN3C[C@]3(C4)CC3(F)F)nc3c(F)c4c(cc23)NCCCCCc2c(F)ccc3cc(O)cc-4c23)C1 (single isomer, unassigned) [Example 24B] . Reported log10 of IC50?
Resp: 0.86

Req: Which log10 of IC50 reading was recorded for the compound C=C1CN2CCC[C@@]2(COc2nc(N3CCC[C@@](C)(O)C3)c3cc4c(c(F)c3n2)-c2cc(O)cc3ccc(F)c(c23)CCOCCN4)C1 (single isomer, unassigned) [Example 42A] ?
Resp: -0.87

====

# System: AGS cells
# procedure.details: 3D cell proliferation assay (CellTiter-Glo 3D), AGS
# Type: cell-based
# measurement.conditions: 5 days, read-out: 3D Proliferation Inhibition AGS_IC50
pIC50: −log10 of the molar value.
Give condition met when the value for pIC50 is at least 7. Give condition not met when it is less.

These solved cases illustrate the format of a correct answer.
CN1CCCCCc2c(F)ccc3cc(O)cc(c23)-c2c1cc1c(N3CCC[C@@](C)(O)C3)nc(OC[C@@]34CCCN3C[C@H](F)C4)nc1c2F (single isomer, unassigned) [Example 6B]; condition not met
CN1CCOCCc2c(F)ccc3cc(O)cc(c23)-c2c1cc1c(N3CCC[C@@](C)(O)C3)nc(OC[C@@]34CCCN3C[C@H](F)C4)nc1c2F [Example 47]; condition met

Next up:
Req: Would you say C[C@@]1(O)CCCN(c2nc(OCC3(N4CCOCC4)CC3)nc3c(F)c4c(cc23)NCCCCCc2c(F)ccc3cc(O)cc-4c23)C1 (single isomer, unassigned) [Example 33B] shows pIC50 at minimum 7?
Resp: condition not met

====

IC50 values by entry
# Test system: pERK in AsPC-1 cells
# procedure.details: ERK phosphorylation cell assay, AsPC-1
# Type: cell-based
# measurement.conditions: AsPC-1 cells; read-out: pERK AsPC-1_IC50
The answer is to be given in nM; state only the numeric part.

// known answers, use as guide
C[C@@]1(O)CCCN(c2nc(OCC3(CN4CCOCC4)CC3)nc3c(F)c4c(cc23)NCCCCCc2c(F)ccc3cc(O)cc-4c23)C1 [Example 26]; 234
C[C@@]1(O)CCCN(c2nc(OCC34CCCN3C[C@]3(C4)CC3(F)F)nc3c(F)c4c(cc23)NCCCCCc2c(F)ccc3cc(O)cc-4c23)C1 (single isomer, unassigned) [Example 24A]; 352
CN1CCC[C@H]1COc1nc(N2CCC[C@@](C)(O)C2)c2cc3c(c(F)c2n1)-c1cc(O)cc2ccc(F)c(c12)CCCCCN3 (single isomer, unassigned) [Example 28A]; 776

Kindly review the next molecule as well.
Req: Can you look up the measured IC50 of C[C@@]1(O)CCCN(c2nc(OCC34CCCN3CCC4)nc3c(F)c4c(cc23)NCCCCCc2c(F)ccc3cc(O)cc-4c23)C1 (single isomer, unassigned) [Example 21B] for me?
Resp: 4620
